For each entry below, report its GI50 value.
# System: KM12
# EXPERIMENT_SUMMARY: NCI tumour cell line growth inhibition, 48 h
Activity calls are given as the source filed them. Cut-off read from the data, not from the text of the source: active = GI50 up to about 1.1 µM and inactive = higher. Where a SMILES comes first, the peptide text is derived from it. The star is where a group is joined. X33 = O=C(c1ccc(-c2ccc(Cl)cc2Cl)o1)*

COC(=O)c1c(O)ccc(O)c1C(C(C)=O)C(C)=O ... > 100 µM (inactive)

Look at each molecule and report its GI50.
1. Cc1cc(Cc2cc(C)c(NC(=O)C(=O)C3C(=O)NC(=S)NC3=O)c(C(C)C)c2)cc(C(C)C)c1NC(=O)C(=O)C1C(=O)NC(=S)NC1=O
2. NC1N=C(c2ccc(Cl)cc2)C2=C(N1)c1ccccc1CC2 (centres undefined)
3. CCC(C)C(NC(=O)CNC(=O)C(Cc1ccccc1)NC(=O)C1CCCN1C(=O)c1ccc(-c2ccc(Cl)cc2Cl)o1)C(=O)OC (centres undefined) (X33-PFGI-OMe; configuration not given here)

Out:
> 100 µM (inactive)
4.03 µM (inactive)
37.5 µM (inactive)

====

# System: SK-MEL-5
# EXPERIMENT_SUMMARY: NCI tumour cell line growth inhibition, 48 h
Calls of active or inactive are those of the source. No stated cut-off is given here; in the data, active = GI50 up to about 1.1 µM and inactive = higher.
Your answer must be one of the following: yes (1) for active, no (0) for inactive

// known answers, use as guide
C[N+]1=c2c3cccc4cccc(c(=O)n2CCC1)c43 ... no (0)
C=C1C(=O)O[C@H]2C1[C@H](OC(=O)/C(C)=C\COC(C)=O)C[C@]1(CO1)[C@@H]1[C@H](O)[C@H]3O[C@@]3(C)[C@@H]12 (stereo not given in full) ... no (0)
COc1ccc(C2c3cc4c(c(OC)c3CC3OCC(=O)C32)OCO4)cc1OC (stereo not given) ... yes (1)
O=C1Nc2c(Cl)cccc2/C1=N/Nc1ccccc1[N+](=O)[O-] ... no (0)

In: State the result this test recorded for `NC(=O)c1c(-c2ccccc2)c(-c2ccccc2)cc2c(=O)c3ccccc3[nH]c12` .
Out: no (0)

In: Record lookup: outcome of this test for C=CCC(C)C12CCNC(Cc3ccc(O)cc31)C2C (stereo not given) ?
Out: no (0)

In: So what was the verdict on `C/C=N\N1C(=O)c2ccccc2C1=O` in this test?
Out: no (0)

In: State the result this test recorded for `O=C1CCCN1C(=O)CS(=O)(=O)c1ccccc1` .
Out: no (0)

In: Assay result, entry `Cc1nc2c(=O)n(-c3ccccc3)c(=O)n(-c3ccccc3)c2o1` — outcome?
Out: no (0)

In: Query: recorded result category for `CCc1ccccc1NC(=O)c1cccc([N+](=O)[O-])c1O` in this test
Out: no (0)

In: Outcome? `CCCC(=O)OC1=C(c2ccccc2)Sc2ccccc2-n2cccc21`
Out: no (0)

In: Test call for this compound, please: `COc1cc(C=O)ccc1Oc1nnnn1-c1ccccc1`
Out: no (0)

In: # fetch the recorded call for `O=[N+]([O-])c1ccc(C2=Nn3c(nnc3-c3ccccc3)SC2)o1` here
Out: no (0)

In: I would be grateful if you could indicate the recorded call for `Nc1n[n+](-c2ccccc2)no1` .
Out: no (0)

In: What call does the record list for `CSc1[nH]nc(N)c1C(=O)Nc1ccccc1` ?
Out: no (0)
